Let's look at some compounds and their measured growth.
test system: RPMI-8226 leukemia; assay: NCI-60 one-dose screen, 48 h (100 = growth as untreated, 0 = no growth, -100 = all killed); conditions: 10 µM unless noted
Compounds without any hit were thinned out: in the full panel of roughly 83,000, 20% have a hit.
Return type: number; implicit unit %.

Here's what some known entries look like.
O=C1C=Cc2ncccc2C1=O
27.6
CC1=CC(=O)N(c2cccc3c(N4C(=O)C=C(C)C4=O)cccc23)C1=O
21.5
COC(=O)[C@]12CC[C@@H](C(/C=C/c3cccnc3)=N/O)[C@@H]1[C@H]1CC[C@@H]3[C@@]4(C)CC(=C/c5cccnc5)/C(=N/O)C(C)(C)[C@@H]4CC[C@@]3(C)[C@]1(C)CC2
1.81
CCC(c1ccc(OC)cc1)C(CC)c1ccc(O)c(CN2CCCCC2)c1 (centres undefined)
5.83
Cc1cccc(C)c1NCc1nc(-c2ccccc2)n[nH]1
108
CC(=O)O[C@H]1CC[C@]2(C)[C@H]3CC=C4[C@@H]5[C@H](C)[C@@H](C)CC[C@]5(C(=O)NCCNCCNCCN)CC[C@@]4(C)[C@]3(C)CC[C@H]2C1(C)C
42.3

Entry Cc1cc(N2CCCCC2)nc(N(CCNc2ccnc3cc(Cl)ccc23)Cc2ccco2)n1 , tested on RPMI-8226 leukemia, has a reported growth of -36.5

Entry COc1cc2c(cc1-c1c(C)noc1C)ncc1nc(C3CCC(F)(F)CC3)n([C@@H](C)COC(F)F)c12 , tested on RPMI-8226 leukemia, has a reported growth of 17.3

Entry O=C(NC1=CC(=O)c2ccccc2C1=O)c1ccccc1 , tested on RPMI-8226 leukemia, has a reported growth of 4.25

Entry O=c1[nH]c2c3ccncc3cc(-c3cccc(Cl)c3)c2c2cnccc12 , tested on RPMI-8226 leukemia, has a reported growth of 27.1

Entry COc1ccc(/C=C(\C#N)c2cc3ccccc3n2S(C)(=O)=O)cc1 , tested on RPMI-8226 leukemia, has a reported growth of 79.1

Entry COC(=O)[C@]12CC[C@@H](C(=O)/C=C/c3cccnc3)[C@@H]1[C@H]1CC[C@@H]3[C@@]4(C)C/C(=C/c5cccnc5)C(=O)C(C)(C)[C@@H]4CC[C@@]3(C)[C@]1(C)CC2 , tested on RPMI-8226 leukemia, has a reported growth of -28.7

Entry O=[N+]([O-])c1cccc(/C=N\Nc2ccccc2)c1 , tested on RPMI-8226 leukemia, has a reported growth of 86.5

Entry CCCCn1c(-c2ccc(O)cc2)cn2c3c(=O)[nH]c(=O)n(C)c3nc12 , tested on RPMI-8226 leukemia, has a reported growth of 84.7

Entry Nc1nc(Br)nc2c1ncn2C1CC(O)C(CO)O1 (centres undefined) , tested on RPMI-8226 leukemia, has a reported growth of 73.5

Entry Oc1cccc2oc(=S)[nH]c12 , tested on RPMI-8226 leukemia, has a reported growth of 106

Entry c1ccc2c(-c3nc(-c4c[nH]c5ncccc45)cs3)c[nH]c2c1 , tested on RPMI-8226 leukemia, has a reported growth of 76.7

Entry O=S(=O)(NCCNc1cc(-c2cn(-c3ccccc3)nc2-c2cccc(O)c2)ccn1)c1ccccc1 , tested on RPMI-8226 leukemia, has a reported growth of 32.7

Entry Cc1cccc(C)c1NC(=O)CSC(=S)N1CCCCC1 , tested on RPMI-8226 leukemia, has a reported growth of 104

These data points were gathered from PubChem BioAssay (NCI).
